assayed_system: B-RAFV600E (Homo sapiens, UniProt P15056, V600E)
Sequence (P15056 416-766 V600E limits assumed): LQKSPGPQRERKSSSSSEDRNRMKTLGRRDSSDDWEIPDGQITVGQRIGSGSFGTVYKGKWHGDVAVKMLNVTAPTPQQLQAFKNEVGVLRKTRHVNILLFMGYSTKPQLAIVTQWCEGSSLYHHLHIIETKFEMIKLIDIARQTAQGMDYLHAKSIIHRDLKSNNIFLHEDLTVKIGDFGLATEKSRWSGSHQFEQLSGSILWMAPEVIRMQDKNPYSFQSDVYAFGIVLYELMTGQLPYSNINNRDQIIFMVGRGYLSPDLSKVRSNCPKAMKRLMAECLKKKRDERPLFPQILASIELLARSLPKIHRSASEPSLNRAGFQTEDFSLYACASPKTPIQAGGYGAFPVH
protocol_text: B-RAFV600E radiometric assay
run_parameters: read-out: Kinase assay B-Raf
Exercise: for every item that follows, state its recorded IC50.

**Query** Give B-RAFV600E (Homo sapiens, UniProt P15056, V600E) IC50 for C[C@H]1COCCN1c1nc(-c2ccc(N)nc2)nc2ccc(-c3cccc(NS(=O)(=O)CCCF)c3F)nc12 [Example 127]
**Result** 0.1 to 1 µM

**Query** Same thing, different compound: C[C@@H]1COCCN1c1nc(-c2ccc(N)nc2)nc2c(N3CCCC3)cc(-c3cccc(NS(=O)(=O)CCCF)c3F)cc12 [Example 74]
**Result** 0.001 to 0.1 µM

**Query** Same thing, different compound: C[C@@H]1COCCN1c1nc(-c2cnc(N)nc2)nc2c(OCCF)cc(-c3cccc(NS(=O)(=O)CCCF)c3F)cc12 [Example 141]
**Result** 0.001 to 0.1 µM

**Query** Now the same for CCCS(=O)(=O)Nc1ccc(F)c(-c2cc(OC)c3nc(-c4cnc(N)nc4)nc(N4CCOCC4)c3c2)c1F [Example 6]
**Result** 0.001 to 0.1 µM

**Query** Repeat with C[C@@H]1COCCN1c1nc(-c2ccc(N)nc2)nc2c(N3CCOCC3)cc(-c3cccc(NS(=O)(=O)CCCF)c3F)cc12 [Example 72]
**Result** 0.001 to 0.1 µM

**Query** Next record, please: COc1cc(-c2c(F)ccc(NS(=O)(=O)CCCF)c2F)cc2c(N3CCOCC3)nc(-c3cnc4[nH]ccc4c3)nc12 [Example 83]
**Result** 0.001 to 0.1 µM

**Query** Now this one: COc1cc(-c2cccc(NS(=O)(=O)C(C)C)c2F)cc2c(N3CCOCC3)nc(-c3ccc(N)nc3)nc12 [Example 33]
**Result** 0.1 to 1 µM

----------
assayed_system: B-RAFV600E (Homo sapiens, UniProt P15056, V600E)
protocol_text: B-RAFV600E radiometric assay
run_parameters: read-out: Kinase assay B-Raf
readout_label: IC50

**Query** What IC50 value was documented for this compound, Nc1cc(C(F)(F)F)c(-c2nc(N3CCOCC3)c3nc(-c4cccc(NS(=O)(=O)CCCF)c4F)ccc3n2)cn1 ?
**Result** 1 to 100 nM

**Query** Next up: Nc1ncc(-c2nc(N3CCOCC3)c3cc(-c4cccc(NS(=O)(=O)CCCF)c4F)cc(N4CCOCC4)c3n2)cn1
**Result** 1 to 100 nM

**Query** // query: COc1cc(-c2cccc(NS(=O)(=O)c3ccccc3F)c2F)cc2c(N3CCOCC3)nc(-c3ccc(N)nc3)nc12
**Result** 1 to 100 nM

**Query** Could you do the same for CCCS(=O)(=O)Nc1cccc(-c2cc(OC)c3nc(-c4cnc(N)c(Cl)c4)nc(N4CCOCC4)c3c2)c1F , please?
**Result** 1 to 100 nM

**Query** Could you do the same for CCNc1ccc(-c2nc(N3CCOCC3)c3nc(-c4cccc(NS(=O)(=O)CCCF)c4F)ccc3n2)cn1 , please?
**Result** 1 to 100 nM

**Query** Param item: COc1cc(-c2cccc(NS(=O)(=O)CCCF)c2F)cc2c(N3CCOCC3)nc(-c3ccc(NC(C)=O)nc3)nc12
**Result** 1 to 100 nM

**Query** Next up: COc1cc(-c2c(F)ccc(NS(=O)(=O)c3c(F)cccc3F)c2F)cc2c(N3CCOCC3)nc(-c3ccc(N)nc3)nc12
**Result** 1 to 100 nM
